- ASSAY SETUP: 318.15 K, Ring tensiometer
MEASUREMENT KIND: surface tension liquid-gas (mN/m)

Guide cases for surface tension liquid-gas, answers given:
- CCO: 20.18
- CCCO: 20.99

A. CO
B. [2H]O[2H] [water-d2]
Which is greater in surface tension liquid-gas, the first item A or the second item B ? Give the label under which the chosen entry appears.
B

###

- ASSAY SETUP: 288.15 K, Ring tensiometer
MEASUREMENT KIND: surface tension liquid-gas (mN/m)

P. CO
Q. [2H]O[2H] [water-d2]
Exercise: compare P and Q ; which one has the greater surface tension liquid-gas? In your reply, give the label of the chosen option.
Q

###

- ASSAY SETUP: 308.15 K, Ring tensiometer
MEASUREMENT KIND: surface tension liquid-gas (mN/m)

Some solved entries appear below for comparison.
- CO: 20.94
- CCCO: 21.62

A. CCO
B. [2H]O[2H] [water-d2]
Field: lower surface tension liquid-gas | Options: A / B Please indicate the selected item by its label.
A
(A: 20.35 mN/m, B: 70.21 mN/m)

###

- ASSAY SETUP: 298.15 K, Ring tensiometer
MEASUREMENT KIND: surface tension liquid-gas (mN/m)

Here are 2 molecules together with their reported answers.
• CCO = 21.19
• CO = 21.64

1. CCCO
2. [2H]O[2H] [water-d2]
Min surface tension liquid-gas? 1 | 2 Reply briefly: the label of your chosen item.
1
